The molecules below each have a reported IC50 tested on Histone deacetylase 3 (Homo sapiens); the values come from various publications.

{"MOLECULE": "CN1CCN(c2cnc(C(=O)Nc3cc(-c4cccs4)ccc3N)cn2)CC1", "SYSTEM": "Histone deacetylase 3 (Homo sapiens)", "IC50": "10 to 500 nM"}
{"MOLECULE": "CN1CCN(c2ccc(-c3ccc(S(=O)(=O)N4CC=C(C(=O)NO)CC4)cc3)cc2)CC1", "SYSTEM": "Histone deacetylase 3 (Homo sapiens)", "IC50": "< 100 nM"}
{"MOLECULE": "CC(C)C1(Nc2ncc(C(=O)NO)cn2)CCN(C(=O)OCc2ccccc2)CC1", "SYSTEM": "Histone deacetylase 3 (Homo sapiens)", "IC50": "879 nM"}
{"MOLECULE": "Cc1ccc(/C=C/CC(=O)Nc2ccc(C(=O)Nc3ccc(C(F)(F)F)cc3N)nc2)cn1", "SYSTEM": "Histone deacetylase 3 (Homo sapiens)", "IC50": "> 20000 nM"}
{"MOLECULE": "O=C(/C=C/c1ccc(CNCC23CC4CC(CC(C4)C2)C3)cc1)NO", "SYSTEM": "Histone deacetylase 3 (Homo sapiens)", "IC50": "1.2 nM"}
{"MOLECULE": "Nc1ccc(-c2ccc(F)cc2)nc1NC(=O)c1ccc(N2CCNCC2)nc1", "SYSTEM": "Histone deacetylase 3 (Homo sapiens)", "IC50": "≥ 50000 nM"}

Task item: What value of IC50 has been reported for the following molecule? `CNS(=O)(=O)Oc1ccc(-c2ccc(N)c(NC(=O)c3ccc(N4CCN(C)CC4)cn3)c2)cc1`
Reply: > 2000 nM

Task item: Moving on to the next molecule: `Nc1ccc(-c2ccc(F)cc2)nc1NC(=O)c1cnc(NC2CC2)nc1`
Reply: ≥ 50000 nM
